As shown below, each of these molecules has a reported <d>Z (nm) value.
# assayRemarks: LNP particle size by dynamic light scattering (Zetasizer Nano ZS)
# Assay type: physicochemical
# testSettings: Table 5; N/P ratio 3:1; DMPE-PEG2000
# Experimental: A solution of eGFP mRNA (purchased from TriLink Biotechnologies) in citrate buffer was prepared by mixing mRNA dissolved in MilliQ-water, 100 mM citrate buffer (pH 3) and MilliQ-water to give a solution of 50 mM citrate. […] The first 0.2-0.35 mL and the last 0.05-0.1 mL of the LNP suspension prepared were discarded while the rest of the volume was collected as the sample fraction. […] The number-weighted particle size distributions and averages were calculated using a particle refractive index of 1.45.
endpointLabel: <d>Z (nm)

• CCCCCCCCC(CCCCCCCC)OC(=O)CCCCCCCC(CCCCCCCC(=O)OCCC(C)CCCCCC)NCC1CCOCC1 (stereo not shown) = 79
• CCCCCCCCC(CCCCCCCC)OC(=O)CCCCCCCC(CCCCCCCC(=O)OCC(C)CCCCCCC)NCC1CCOC1 (stereo not shown) = 72
• CCCCCCCCC(C)OC(=O)CCCCCCCC(CCCCCCCC(=O)OC(CCCCCCCC)CCCCCCCC)NCC1COC1 (stereo not shown) = 60
• CCCCCCCCC(CC)OC(=O)CCCCCCCC(CCCCCCCC(=O)OC(CCCCCCCC)CCCCCCCC)NCC1COC1 (stereo not shown) = 69
• CCCCCCCCC(CCCCCCCC)OC(=O)CCCCCCCC(CCCCCCCC(=O)OCCC(C)CCCCCC)NC1CC2(COC2)C1 (stereo not shown) = 84
• CCCCCCCCC(CC)OC(=O)CCCCCCCC(CCCCCCCC(=O)OC(CCCCCCCC)CCCCCCCC)NCC1CCOC1 (stereo not shown) = 70
• CCCCCCCCC(CCCCCCCC)OC(=O)CCCCCCCC(CCCCCCCC(=O)OCC(C)CCCCCCC)NC1CC2(COC2)C1 (stereo not shown) = 90

----------
# assayRemarks: LNP particle size by dynamic light scattering (Zetasizer Nano ZS)
# Type: physicochemical
# testSettings: Table 4; N/P ratio 3:1; DMPE-PEG2000
endpointLabel: <d>Z (nm)

• CCCCCCCCC(C)OC(=O)CCCCCCCC(CCCCCCCC(=O)OC(CCCCCCCC)CCCCCCCC)NC1CC2(COC2)C1 (stereo not shown) = 72
• CCCCCCCCCOC(=O)CCCCCCC(CCCCCCC(=O)OC(CCCCCCCC)CCCCCCCC)NC1CC2(COC2)C1 (stereo not shown) = 71
• CCCCCCCCC(CCCCCCCC)OC(=O)CCCCCCC(CCCCCCC(=O)OC(CCCCCCCC)CCCCCCCC)NC1CC2(COC2)C1 = 62
• CCCCCC(CCCCC)CCOC(=O)CCCCCCCCC(CCCCCCCCC(=O)OCCC(CCCCC)CCCCC)NCC1CCOCC1 = 96
• CCCCCCCCCOC(=O)CCCCCC(CCCCCC(=O)OC(CCCCCCCC)CCCCCCCC)NCC1COC1 (stereo not shown) = 67
• CCCCCCCCC(CCCCCCCC)OC(=O)CCCCCCCC(CCCCCCCC(=O)OC(CCCCCCCC)CCCCCCCC)NC1CC2(COC2)C1 = 62
• CCCCCCCCCOC(=O)CCCCCC(CCCCCC(=O)OC(CCCCCCCC)CCCCCCCC)NC1CC2(COC2)C1 (stereo not shown) = 75
